Measured pIC50 by item
# tested system: UniProt Q00534
# Sequence (Q00534 whole entry): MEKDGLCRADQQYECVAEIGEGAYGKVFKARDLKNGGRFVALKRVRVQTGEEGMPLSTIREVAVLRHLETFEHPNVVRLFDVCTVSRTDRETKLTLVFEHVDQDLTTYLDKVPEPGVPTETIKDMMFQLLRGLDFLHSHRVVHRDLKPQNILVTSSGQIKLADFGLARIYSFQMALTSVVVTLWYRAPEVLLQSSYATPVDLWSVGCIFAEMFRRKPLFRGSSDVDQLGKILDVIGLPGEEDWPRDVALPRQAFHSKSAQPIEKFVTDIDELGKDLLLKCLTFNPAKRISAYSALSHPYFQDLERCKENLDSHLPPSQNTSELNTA
# Sequence (P30281 whole entry partner): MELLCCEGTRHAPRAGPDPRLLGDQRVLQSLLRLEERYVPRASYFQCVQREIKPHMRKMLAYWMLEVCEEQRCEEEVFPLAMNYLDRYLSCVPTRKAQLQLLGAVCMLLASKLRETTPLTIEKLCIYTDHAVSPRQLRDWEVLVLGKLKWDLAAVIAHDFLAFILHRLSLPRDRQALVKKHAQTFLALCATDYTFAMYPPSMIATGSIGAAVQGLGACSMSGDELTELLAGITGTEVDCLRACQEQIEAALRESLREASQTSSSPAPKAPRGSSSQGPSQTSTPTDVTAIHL
# measurement description: Microfluidic LabChip inhibition assay, CDK6-CYCLIND3
# Assay type: biochemical
# setup conditions: Table 2; ATP 300 μM, 25° C.; read-out: CDK6 IC50
Please treat pIC50 as minus the base-10 logarithm of the molar concentration.

Before answering, review these 10 worked examples.
N#Cc1cc2cnc(Nc3ccc(OCCN4CCCCC4)cn3)nc2n(C2CCCC2)c1=O
7.21
N#Cc1cc2cnc(Nc3ccc(N4CCC(N5CCOCC5)CC4)c(F)c3)nc2n(C2CCCC2)c1=O
7.55
CN1CCN(c2ccc(Nc3ncc4cc(C#N)c(=O)n(C5CCCC5)c4n3)cc2)CC1
8.32
CN1CCN(c2ccc(Nc3ncc4cc(C#N)c(=O)n(C5CCCC5)c4n3)c(F)c2)CC1
5.85
CC(C)N1CCN(c2ccc(Nc3ncc4cc(C#N)c(=O)n(C5CCCC5)c4n3)c(F)c2)CC1
7.05
N#Cc1cc2cnc(Nc3ccc(N4CCNCC4)c(F)c3)nc2n(C2CCCC2)c1=O
8.14
N#Cc1cc2cnc(Nc3ccc(OCCN4CCCC4)c(F)c3)nc2n(C2CCCC2)c1=O
7.62
CN1CCN(c2ccc(Nc3ncc4cc(C#N)c(=O)n(C56CC(C5)C6)c4n3)cc2)CC1
7.38
N#Cc1cc2cnc(Nc3ccc(N4CC5(CNC5)C4)cc3)nc2n(C2CCCC2)c1=O
8.08
CN(C)CCOc1ccc(Nc2ncc3cc(C#N)c(=O)n(C4CCCC4)c3n2)cc1
7.84

Notebook: CN1CCN(c2ccc(Nc3ncc4cc(C#N)c(=O)n(C5CCCC5)c4n3)cn2)CC1 , pIC50 read as 7.48

Notebook: CN1CCN(c2ccc(Nc3ncc4cc(C#N)c(=O)n(C5CCCC5)c4n3)cc2F)CC1 , pIC50 read as 8.11

Notebook: N#Cc1cc2cnc(Nc3ccc(OCCN4CCCC4)cn3)nc2n(C2CCCC2)c1=O , pIC50 read as 6.99
